- assayedTarget: somatostatin receptor type 2 (SSTR2) (UniProt P30874 1-369)
- Sequence (P30874 whole entry): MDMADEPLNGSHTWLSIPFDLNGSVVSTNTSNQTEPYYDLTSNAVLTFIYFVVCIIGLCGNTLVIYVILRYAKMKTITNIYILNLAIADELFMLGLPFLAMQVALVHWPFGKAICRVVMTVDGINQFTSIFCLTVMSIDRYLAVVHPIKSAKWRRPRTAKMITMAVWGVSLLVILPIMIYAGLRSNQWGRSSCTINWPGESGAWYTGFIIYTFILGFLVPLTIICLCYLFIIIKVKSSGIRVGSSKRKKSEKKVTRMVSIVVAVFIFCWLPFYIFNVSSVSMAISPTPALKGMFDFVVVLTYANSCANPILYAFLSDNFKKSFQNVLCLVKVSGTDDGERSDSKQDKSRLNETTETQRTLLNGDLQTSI
- measurementNotes: cell-based or functional assay
Positions of bridges follow the written chain, without caps; N, C: chain ends. Non-standard residues stand in square brackets, D forms with d. dPhe(4-CONH2) = NC(=O)c1ccc(C[C@@H](N)C(=O)O)cc1; NMePhe(4-Cl) = CN[C@@H](Cc1ccc(Cl)cc1)C(=O)O; NMeY = CN[C@@H](Cc1ccc(O)cc1)C(=O)O; dNMeY = CN[C@H](Cc1ccc(O)cc1)C(=O)O; NMeT = CN[C@H](C(=O)O)[C@@H](C)O
quantity: IC50 (PathHunter β-Arrestin, antagonist mode)

H-[NMePhe(4-Cl)][dC][NMeY][dPhe(4-CONH2)]K[NMeT]C[dNMeY]-NH2 (disulfide 2-7; SMILES CN[C@@H](Cc1ccc(Cl)cc1)C(=O)N[C@@H]1CSSC[C@@H](C(=O)N(C)[C@H](Cc2ccc(O)cc2)C(N)=O)NC(=O)[C@H]([C@@H](C)O)N(C)C(=O)[C@H](CCCCN)NC(=O)[C@@H](Cc2ccc(C(N)=O)cc2)NC(=O)[C@H](Cc2ccc(O)cc2)N(C)C1=O) [Compound 80: H-NMeCpa-[DCys-NMeTyr-DPhe(4-carbamoyl)-Lys-NMeThr-Cys]-NMeDTyr-NH2] = > 1000 nM
